System: tumoral phospho-MCM2 (pMCM2)
Test: Mouse SW620 colorectal xenograft PK/PD assessment
Assay type: in vivo
Details: 60 mg/kg single oral dose
Experimental: The effect of SRA141 treatment on tumoral phospho-MCM2 (pMCM2), a direct substrate of Cdc7 and downstream marker of Cdc7 inhibition, was determined in mice bearing SW620 xenografts. Changes in pMCM2 were correlated with SRA141 concentrations in tumor and plasma over a 48-hour period following drug administration to construct a rudimentary PK/PD model. […]
quantity: Maximal SRA141 plasma concentration

Which Maximal SRA141 plasma concentration is listed for CCOC(=O)C1=C(NN2CCN(CC(F)(F)F)CC2)O/C(=C\c2c[nH]c3ncccc23)C1=O ?
~1.5 µg/mL

###

test: 4-cycle repeat oral dose toxicology study (5 days on/2 days off); format: in vivo, rat; details: plasma, po, 100 mg/kg/day; at MTD/HNSTD, rat, female
quantity: Cmax (ng/mL)
Your answer is read as ng/mL, so omit the unit and give the number.

Look at this compound and give its reported Cmax. CCOC(=O)C1=C(NN2CCN(CC(F)(F)F)CC2)O/C(=C\c2c[nH]c3ncccc23)C1=O [SRA141]
1610
